MEASUREMENT TARGET: human NTCP (Homo sapiens)
Sequence (Q14973 1-349): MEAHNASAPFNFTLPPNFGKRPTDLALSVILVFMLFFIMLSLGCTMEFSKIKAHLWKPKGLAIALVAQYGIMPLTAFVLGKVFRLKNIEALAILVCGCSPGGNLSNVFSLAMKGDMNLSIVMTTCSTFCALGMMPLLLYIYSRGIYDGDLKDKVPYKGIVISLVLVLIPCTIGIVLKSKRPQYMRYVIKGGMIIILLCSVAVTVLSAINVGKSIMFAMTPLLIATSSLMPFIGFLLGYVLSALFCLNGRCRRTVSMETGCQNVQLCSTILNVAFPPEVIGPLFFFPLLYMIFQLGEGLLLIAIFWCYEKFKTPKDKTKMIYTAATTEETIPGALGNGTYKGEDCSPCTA
TEST PROTOCOL: Myrcludex B-FITC binding by confocal microscopy in U2OS-HA-hNTCP cells
Design: HA; expressed in transfected cells
MEASUREMENT CONDITIONS: co-administration with increasing amounts of drug
PARAMETER MEASURED: Myrcludex B-FITC fluorescence / binding to U2OS-HA-hNTCP cells (in words)

1. O=C(O)c1cc(/N=N/c2ccc(S(=O)(=O)Nc3ccccn3)cc2)ccc1O : reduced
2. Nc1c2c(nc3ccccc13)CCCC2O.O=C(O)/C=C\C(=O)O (centres unmarked) [Hydroxytacrine Maleate] : not
3. COc1cc(-c2ccc(N=Nc3ccc4c(S(=O)(=O)[O-])cc(S(=O)(=O)[O-])c(N)c4c3O)c(OC)c2)ccc1N=Nc1ccc2c(S(=O)(=O)[O-])cc(S(=O)(=O)[O-])c(N)c2c1O.[Na+].[Na+].[Na+].[Na+] : reduced

====

MEASUREMENT TARGET: human NTCP (Homo sapiens, UniProt Q14973)
TEST PROTOCOL: Screening taurocholate uptake assay (96-well, [14C]taurocholate, 10 µM drug)
MEASUREMENT CONDITIONS: screening taurocholate uptake, 10 µM drug; B-score
Structures can show the parent of a compound that is named as a salt.
Each item that follows carries a reported B-score functional assay.
Lab note: write the figure by itself, no unit.

The examples below pair each entry with its known result.
1. CCOC(=O)Nc1ccc2c(c1)N(C(=O)CCN1CCOCC1)c1ccccc1S2 [Moricizine hydrochloride] : 2.078
2. Nc1nc(NC2CC2)c2ncn([C@H]3C=C[C@@H](CO)C3)c2n1 [Abacavir Sulfate] : 2.371
3. NS(=O)(=O)c1cc(C(=O)O)c(NCc2ccco2)cc1Cl [Furosemide] : 1.457
4. CN(C(=O)C(Cl)Cl)c1ccc(OC(=O)c2ccco2)cc1 [Diloxanide furoate] : 1.688
5. COc1cc([C@@H]2c3cc4c(cc3[C@H](O)[C@H]3COC(=O)[C@H]23)OCO4)cc(OC)c1OC [Podophyllotoxin] : 1.781

Read the next record carefully.
## Input Respond only with B-score functional assay recorded for CC(C)(C)NCC(O)c1ccccc1Cl (centres unmarked) [Tulobuterol]
## Output 2.873

====

MEASUREMENT TARGET: human NTCP (Homo sapiens, UniProt Q14973)
TEST PROTOCOL: Screening taurocholate uptake assay (96-well, [14C]taurocholate, 10 µM drug)
MEASUREMENT CONDITIONS: Prestwick library screen, taurocholate uptake, 10 µM drug
Structures can show the parent of a compound that is named as a salt.
The label 1 is reserved for B-score functional assay strictly under 0.2; 0 covers values equal to or above it.

Solved cases below.
1) CN(C)C(=O)Oc1cccc([N+](C)(C)C)c1 [Neostigmine bromide] : 1
2) CC(=O)Nc1c(I)c(NC(C)=O)c(I)c(C(=O)O)c1I.O.O [Diatrizoic acid dihydrate] : 1
3) Nc1nc(N)c2nc(-c3ccccc3)c(N)nc2n1 : 0
4) O=C(Cn1ccnc1[N+](=O)[O-])NCCO : 1
5) N[C@@H]1CON=C1O : 1

## Input Does this molecule meet the criterion B-score functional assay < 0.2? O=C(O)C(O)C(O)C(=O)O.O=C(c1ccc(F)cc1)C1CCN(CCn2c(=O)[nH]c3ccccc3c2=O)CC1 [Ketanserin tartrate hydrate]
## Output 0

## Input Does this molecule meet the criterion B-score functional assay < 0.2? Cl.NC1CCN(c2nc3c(cc2F)c(=O)c(C(=O)O)cn3-c2ccc(F)cc2F)C1 (stereo not drawn) [Tosufloxacin hydrochloride]
## Output 1

## Input Does this molecule meet the criterion B-score functional assay < 0.2? O=C1NCC2(CCN(CCc3ccccc3)CC2)O1 [Fenspiride hydrochloride]
## Output 1

## Input Does this molecule meet the criterion B-score functional assay < 0.2? `CNCCC=C1c2ccccc2C=Cc2ccccc21`
## Output 0

## Input Does this molecule meet the criterion B-score functional assay < 0.2? Fc1ccc(C(c2ccc(F)cc2)N2CCN(C/C=C/c3ccccc3)CC2)cc1 [Flunarizine dihydrochloride]
## Output 0
